test: Population pharmacokinetic model (NONMEM) of pooled phase I plasma and DBS concentrations; settings: male, human, in vivo, po
READOUT_KIND: CL/F (mL/min)

[[record]]
compound = "CC(C)C[C@H]1C(=O)O[C@H](Cc2ccc(N3CCOCC3)cc2)C(=O)N(C)[C@@H](CC(C)C)C(=O)O[C@H](C)C(=O)N(C)[C@@H](CC(C)C)C(=O)O[C@H](Cc2ccc(N3CCOCC3)cc2)C(=O)N(C)[C@@H](CC(C)C)C(=O)O[C@H](C)C(=O)N1C [emodepside, Emodepside]"
readout_kind = "CL/F"
measured_result = 21.5

